target: Orexin receptor type 2 (Homo sapiens, UniProt O43614); experiment: Antagonist activity at human OX2R expressed in CHO cells assessed as reduction in [Ala6,12]orexin-A-induced intracellular Ca2+ mobilization incubated for 30 mins by Fluo-4AM dye based fluorescence assay
Sequence (O43614 whole entry): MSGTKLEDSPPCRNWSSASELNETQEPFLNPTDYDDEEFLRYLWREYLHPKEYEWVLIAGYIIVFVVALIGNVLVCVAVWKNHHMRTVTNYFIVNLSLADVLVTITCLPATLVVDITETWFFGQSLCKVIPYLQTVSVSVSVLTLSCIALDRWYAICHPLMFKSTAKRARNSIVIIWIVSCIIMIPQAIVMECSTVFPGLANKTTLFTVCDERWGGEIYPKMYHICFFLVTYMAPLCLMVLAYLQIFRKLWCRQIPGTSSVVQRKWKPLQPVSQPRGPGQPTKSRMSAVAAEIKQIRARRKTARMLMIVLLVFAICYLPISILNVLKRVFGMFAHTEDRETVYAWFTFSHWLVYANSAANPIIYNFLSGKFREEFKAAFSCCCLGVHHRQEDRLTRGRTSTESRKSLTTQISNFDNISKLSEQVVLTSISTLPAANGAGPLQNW
Sorting guide: entries reporting IC50 beneath 20 nM go in the T pile, the rest go in the F pile.

>>> df
                           structure_string  group_label
0  CCN(C(=O)c1nc(C)ccc1-c1ncccn1)[C@@H](C)Cc1noc(-c2ccc(F)cc2)n1            F

Prompt: Is 20 nM strictly greater than the compound's reported IC50? compound: CCN(C(=O)c1cc(C)ccc1-c1ncccn1)[C@@H](C)Cn1nnc(-c2ccc(F)cn2)n1
Response: F

Prompt: Does the reported IC50 of the following compound sit strictly below 20 nM? CCN(C(=O)c1cc(C)ccc1-c1ncccn1)[C@@H](C)Cc1noc(-c2ccc(F)cn2)n1
Response: F

Prompt: Determine whether this compound shows IC50 lower than 20 nM (ties excluded): CCN(C(=O)c1cc(F)ccc1-n1nccn1)[C@@H](C)Cc1noc(-c2ccc(F)cn2)n1
Response: F

Prompt: Given CCN(C(=O)c1ccccc1-n1nccn1)[C@@H](C)Cn1nnc(-c2ccc(F)cc2)n1 , is recorded IC50 strictly lower than 20 nM?
Response: F

Prompt: Bench note: check whether CCN(CCn1ccc(-c2ccc(F)cn2)n1)C(=O)c1cc(C)ccc1-n1nccn1 shows IC50 below 20 nM
Response: T

Prompt: is_below(IC50, 20 nM) for CCN(C(=O)c1cc(C)ccc1-n1nccn1)[C@@H](C)Cn1nnc(-c2ccc(F)cn2)n1 ?
Response: T

Prompt: # strict comparison: is reported IC50 < 20 nM? input = Cc1ccc(-n2nccn2)c(C(=O)N[C@@H](C)Cn2ccc(-c3ccc(F)cn3)n2)c1
Response: F

Prompt: Could you please tell me whether IC50 recorded for CCN(C(=O)c1cc(C)ccc1-n1nccn1)[C@@H](C)Cc1noc(-c2ccc(F)cc2)n1 is less than 20 nM?
Response: T

Prompt: Input CCN(C(=O)c1cc(C)ccc1-n1nccn1)[C@@H](C)Cn1ccc(-c2ccc(F)cn2)n1 ; condition: IC50 strictly below 20 nM. Does it hold?
Response: T

Prompt: Hello, I'm reviewing records and need to know if IC50 of CCN(C(=O)c1nc(C)ccc1-n1nccn1)[C@@H](C)Cn1nnc(-c2ccc(F)cc2)n1 is below 20 nM. Could you check?
Response: F

Prompt: Does the reported IC50 of CCN(C(=O)c1cc(C)ccc1-n1nccn1)[C@@H](C)Cn1cc(-c2ccc(F)cn2)nn1 stay below 20 nM?
Response: F

Prompt: I'd appreciate it if you could check whether CCN(C(=O)c1ccccc1-n1nccn1)[C@@H](C)Cc1noc(-c2ccc(F)cc2)n1 has IC50 smaller than 20 nM.
Response: T

Prompt: In the record for CCN(C(=O)c1cc(F)ccc1-n1nccn1)[C@@H](C)Cn1nnc(-c2ccc(F)cc2)n1 , is IC50 less than 20 nM?
Response: F

Prompt: Does CCN(C(=O)c1cc(F)ccc1-n1nccn1)[C@@H](C)Cc1noc(-c2ccc(F)cc2)n1 have IC50 strictly under 20 nM?
Response: F

Prompt: Take the compound Cc1ccc(-n2nccn2)c(C(=O)N(C)[C@@H](C)Cn2ccc(-c3ccc(F)cn3)n2)c1 and say whether its IC50 is less than 20 nM.
Response: T

Prompt: Decide: IC50 of CCN(CCn1cc(-c2ccc(F)cn2)cn1)C(=O)c1cc(C)ccc1-n1nccn1 strictly below 20 nM?
Response: T

Prompt: Bench note: check whether CCN(C(=O)c1cc(C)ccc1-n1nccn1)[C@@H](C)Cc1noc(-c2ccc(F)cn2)n1 shows IC50 below 20 nM
Response: T

Prompt: Please let me know if Cc1ccc(-n2nccn2)c(C(=O)NCCn2ccc(-c3ccc(F)cn3)n2)c1 shows IC50 below 20 nM.
Response: F

Where these numbers come from: ChEMBL document CHEMBL4043177
